- Tested on: influenza A virus (IAV) A/Aichi/2/68 (H3N2) on MDCK cells
- assay.explanation: microbe, parasite or virus in culture
- Assay type: cell-based, influenza A virus A/Aichi/2/68 (H3N2)
- condition: 48 h, read-out: CPE IC50
measure: IC50 (µM)
One number for each entry, in µM.

Consider the following illustrative entries.
{"structure.notation": "COC(=O)[C@@H](Nc1nc(-c2ccc3n[nH]c(=O)n3c2)ncc1F)C(C)C", "value.unit": "µM", "IC50": 38.5}
{"structure.notation": "COC(=O)CCCCCNc1nc(-c2ccc3n[nH]c(=O)n3c2)ncc1F", "value.unit": "µM", "IC50": 39.3}

Okay, next one:
Inquiry: Return reported IC50; argument: O=C(N[C@@H]1CCC[C@H](Nc2nc(-c3ccc4n[nH]c(=O)n4c3)ncc2F)C1)N1CCCC1
Reply text: 9.1

###

Assign pIC50 to each entry below.
- System: influenza A virus (IAV) A/Aichi/2/68 (H3N2) on MDCK cells
- assay.explanation: microbe, parasite or virus in culture
- Format: cell-based, influenza A virus A/Aichi/2/68 (H3N2)
- condition: 48 h, read-out: CPE
pIC50: −log10 of the molar value.

{"compound": "CC(C)[C@H](Nc1nc(-c2ccc3n[nH]c(=O)n3c2)ncc1F)C(=O)O", "study.system": "influenza A virus (IAV) A/Aichi/2/68 (H3N2) on MDCK cells", "pIC50": "< 4.30"}
{"compound": "CC(C)C(C)Nc1nc(-c2ccc3n[nH]c(=O)n3c2)ncc1F (centres unmarked)", "study.system": "influenza A virus (IAV) A/Aichi/2/68 (H3N2) on MDCK cells", "pIC50": "< 4.30"}
{"compound": "O=c1[nH]nc2ccc(-c3ncc(F)c(NCCO)n3)cn12", "study.system": "influenza A virus (IAV) A/Aichi/2/68 (H3N2) on MDCK cells", "pIC50": "< 4.30"}
{"compound": "O=C(O)CC(Nc1nc(-c2ccc3n[nH]c(=O)n3c2)ncc1F)C1CC1 (centres unmarked)", "study.system": "influenza A virus (IAV) A/Aichi/2/68 (H3N2) on MDCK cells", "pIC50": "< 4.30"}
{"compound": "COC(=O)C[C@@H](Nc1nc(-c2ccc3n[nH]c(=O)n3c2)ncc1F)C(C)C", "study.system": "influenza A virus (IAV) A/Aichi/2/68 (H3N2) on MDCK cells", "pIC50": "< 4.30"}

Hello, I would appreciate it if you could give pIC50 for each entry below.
1. O=C(O)[C@@H]1CCC[C@H](Nc2nc(-c3ccc4n[nH]c(=O)n4c3)ncc2F)C1
2. COC(=O)[C@@H]1CCC[C@H](Nc2nc(-c3ccc4n[nH]c(=O)n4c3)ncc2F)C1
3. CNc1nc(-c2ccc3n[nH]c(=O)n3c2)ncc1F
4. O=C(N[C@@H]1CCC[C@H](Nc2nc(-c3cccc4n[nH]c(=O)n34)ncc2F)C1)N1CCCC1 [reference compound]

Reply text:
1. < 4.30
2. < 4.30
3. < 4.30
4. < 4.30

Hello, I would appreciate it if you could give pIC50 for each entry below.
1. O=c1[nH]nc2ccc(-c3ncc(F)c(NCC4CC4)n3)cn12
2. CC(C)Nc1nc(-c2ccc3n[nH]c(=O)n3c2)ncc1F
3. O=c1[nH]nc2ccc(-c3ncc(F)c(NC4CCCCC4)n3)cn12
4. CC(C)[C@@H](CC(=O)O)Nc1nc(-c2ccc3n[nH]c(=O)n3c2)ncc1F
5. COC(=O)CC(Nc1nc(-c2ccc3n[nH]c(=O)n3c2)ncc1F)C1CC1 (centres unmarked)

Reply text:
1. < 4.30
2. < 4.30
3. < 4.30
4. < 4.30
5. < 4.30
